- system-name: proMMP9(20-445;ΔFnII) (SEQ ID NO:6) (Homo sapiens, UniProt P14780, DEL216-390)
- Construct: start methionine (N)
- Sequence (P14780 with tags, fused parts or gaps DEL216-390): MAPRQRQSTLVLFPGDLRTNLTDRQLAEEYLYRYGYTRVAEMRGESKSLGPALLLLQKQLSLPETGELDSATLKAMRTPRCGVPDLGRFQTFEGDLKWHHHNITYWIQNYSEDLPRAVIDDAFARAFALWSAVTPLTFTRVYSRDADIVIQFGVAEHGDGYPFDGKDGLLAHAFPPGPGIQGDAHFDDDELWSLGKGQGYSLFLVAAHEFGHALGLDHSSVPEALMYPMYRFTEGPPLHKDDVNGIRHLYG
- assay: ThermoFluor binding assay with proMMP9(20-445;ΔFnII)
pKd: −log10 of the molar value.
Everything with pKd lower than 6 is 0.0; everything else, including exactly 6, is 1.0.

[[record]]
smiles_string = "CC(C)Oc1ccc(S(N)(=O)=O)cc1Nc1nc(-c2ccc(N3CCC(O)CC3)nc2)cs1"
discrete_label = 1.0

[[record]]
smiles_string = "CC(C)Oc1ccc(S(N)(=O)=O)cc1Nc1nc(-c2ccc(N3CCNC(=O)C3)nc2)cs1"
discrete_label = 1.0

[[record]]
smiles_string = "CCS(=O)(=O)c1ccc(OC)c(Nc2nc(-c3cccnc3)cs2)c1"
discrete_label = 0.0


Check if pKd >= 6 (inclusive). Item: NS(=O)(=O)c1ccc(OC(F)(F)F)c(Nc2nc(-c3cccnc3)cs2)c1 0.0

Now consider COc1ccc(S(N)(=O)=O)cc1Nc1nc(-c2cccnc2)cs1 and answer again. 0.0

Now consider CN1CCN(c2ccc(-c3csc(Nc4cc(S(N)(=O)=O)ccc4OC(F)(F)F)n3)cn2)CC1 and answer again. 1.0

Now consider CC(C)Oc1ccc(C(N)=O)cc1Nc1nc(-c2ccncc2)cs1 and answer again. 1.0

Now consider CC(C)Oc1ccc(S(N)(=O)=O)cc1Nc1nc(-c2ccc(C(=O)NCCN(C)C)nc2)cs1 and answer again. 1.0
